All values here come from patent US20250213555A1.

molecular target: human Nav 1.8 (Homo sapiens, UniProt Q9Y5Y9); assay: E-VIPR assay detecting and measuring Nav inhibition properties; type: cell-based; conditions: HEK cells expressing a truncated form of human Nav 1.8; compound numbers without "*" (not marked as run in the presence of human serum); read-out: measured IC50 value in the E-VIPR Assay
Sequence (Q9Y5Y9 126-399 limits assumed): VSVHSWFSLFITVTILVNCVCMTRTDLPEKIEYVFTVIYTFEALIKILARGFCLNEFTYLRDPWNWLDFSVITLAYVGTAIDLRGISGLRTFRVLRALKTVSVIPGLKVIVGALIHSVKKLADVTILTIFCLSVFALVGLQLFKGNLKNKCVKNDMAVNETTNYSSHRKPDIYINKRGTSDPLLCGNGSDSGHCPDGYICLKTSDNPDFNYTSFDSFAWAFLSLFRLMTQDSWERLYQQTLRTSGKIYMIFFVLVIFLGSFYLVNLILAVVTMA
Sequence (Q9Y5Y9 660-890 limits assumed): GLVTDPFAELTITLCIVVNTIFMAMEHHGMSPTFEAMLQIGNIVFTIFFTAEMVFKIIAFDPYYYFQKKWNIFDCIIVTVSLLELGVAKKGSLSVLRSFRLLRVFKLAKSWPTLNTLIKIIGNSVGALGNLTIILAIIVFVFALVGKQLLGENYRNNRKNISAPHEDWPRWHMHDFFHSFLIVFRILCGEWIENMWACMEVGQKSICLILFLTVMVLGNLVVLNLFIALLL
Sequence (Q9Y5Y9 1148-1722 limits assumed): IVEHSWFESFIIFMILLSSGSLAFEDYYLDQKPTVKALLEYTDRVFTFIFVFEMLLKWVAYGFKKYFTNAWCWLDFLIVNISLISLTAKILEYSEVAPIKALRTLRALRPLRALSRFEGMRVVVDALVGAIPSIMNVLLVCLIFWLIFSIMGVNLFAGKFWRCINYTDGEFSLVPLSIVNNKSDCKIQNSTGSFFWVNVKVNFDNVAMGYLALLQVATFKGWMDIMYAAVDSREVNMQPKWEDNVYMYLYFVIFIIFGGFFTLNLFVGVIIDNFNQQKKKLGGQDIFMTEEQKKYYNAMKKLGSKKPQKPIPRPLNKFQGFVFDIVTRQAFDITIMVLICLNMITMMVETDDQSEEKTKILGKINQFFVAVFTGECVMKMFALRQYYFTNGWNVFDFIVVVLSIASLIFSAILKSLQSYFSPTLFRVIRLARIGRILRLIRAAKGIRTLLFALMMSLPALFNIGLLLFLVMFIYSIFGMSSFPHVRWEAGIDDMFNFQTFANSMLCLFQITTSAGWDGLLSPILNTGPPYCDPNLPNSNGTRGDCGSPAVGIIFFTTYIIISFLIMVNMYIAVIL
Readings of IC50 for the listed molecules

Below, each entry is followed by its recorded IC50 result.
[[record]]
molecule = "CON=C(C)COc1c([C@H]2[C@H](C(=O)Nc3ccnc(C(N)=O)c3)O[C@@](C)(C(F)(F)F)[C@H]2C)ccc(F)c1F (single isomer, unassigned) [Compound 194]"
measured = "< 10 nM"

[[record]]
molecule = "C[C@@H]1CN(CCOc2c([C@H]3[C@H](C(=O)Nc4ccnc(C(N)=O)c4)O[C@@](C)(C(F)(F)F)[C@H]3C)ccc(F)c2F)CCO1"
measured = "< 10 nM"

[[record]]
molecule = "COc1c([C@H]2[C@H](C(=O)Nc3ccnc(C(=O)N4CCC45CN(C)C5)c3)O[C@@](C)(C(F)(F)F)[C@H]2C)ccc(F)c1F"
measured = "10 to 100 nM"

[[record]]
molecule = "CNC(=O)c1cc(NC(=O)[C@@H]2O[C@@](C)(C(F)(F)F)[C@@H](C)[C@H]2c2ccc(F)c(F)c2OCCO)ccn1"
measured = "< 10 nM"


Look up and report IC50, with human Nav 1.8 (Homo sapiens, UniProt Q9Y5Y9) as system, for COc1c([C@H]2[C@H](C(=O)Nc3ccnc(C(=O)N4CCN(C)CC4)n3)O[C@@](C)(C(F)(F)F)[C@H]2C)ccc(F)c1F
10 to 100 nM

Look up and report IC50, with human Nav 1.8 (Homo sapiens, UniProt Q9Y5Y9) as system, for CC(C)C(COc1c([C@H]2[C@H](C(=O)Nc3ccnc(C(N)=O)c3)O[C@@](C)(C(F)(F)F)[C@H]2C)ccc(F)c1F)=NO (single isomer, unassigned) [Compound 187]
< 10 nM

Look up and report IC50, with human Nav 1.8 (Homo sapiens, UniProt Q9Y5Y9) as system, for COc1c([C@H]2[C@H](C(=O)Nc3ccnc(C(=O)N4C[C@@H]5C[C@H]4CN5)c3)O[C@@](C)(C(F)(F)F)[C@H]2C)ccc(F)c1F
< 10 nM

Look up and report IC50, with human Nav 1.8 (Homo sapiens, UniProt Q9Y5Y9) as system, for COc1c([C@H]2[C@H](C(=O)Nc3ccnc(C(=O)NC[C@H]4CCCCN4)c3)O[C@@](C)(C(F)(F)F)[C@H]2C)ccc(F)c1F
10 to 100 nM

Look up and report IC50, with human Nav 1.8 (Homo sapiens, UniProt Q9Y5Y9) as system, for C[C@H]1[C@@H](c2ccc(F)c(F)c2OCC(C)(C)CO)[C@H](C(=O)Nc2ccnc(C(N)=O)c2)O[C@@]1(C)C(F)(F)F
100 to 1000 nM

Look up and report IC50, with human Nav 1.8 (Homo sapiens, UniProt Q9Y5Y9) as system, for COc1c([C@H]2[C@H](C(=O)Nc3ccnc(C(=O)N4C[C@@H](C)NC[C@H]4C)c3)O[C@@](C)(C(F)(F)F)[C@H]2C)ccc(F)c1F
< 10 nM

Look up and report IC50, with human Nav 1.8 (Homo sapiens, UniProt Q9Y5Y9) as system, for C[C@H]1[C@@H](c2ccc(F)c(F)c2OCc2cncn2C)[C@H](C(=O)Nc2ccnc(C(N)=O)c2)O[C@@]1(C)C(F)(F)F
< 10 nM

Look up and report IC50, with human Nav 1.8 (Homo sapiens, UniProt Q9Y5Y9) as system, for COc1c([C@H]2[C@H](C(=O)Nc3ccnc(C(=O)N(C)CCN(C)C)c3)O[C@@](C)(C(F)(F)F)[C@H]2C)ccc(F)c1F
< 10 nM
